method.description: in vitro
study.conditions: human, hela cells, % viability
Here the recorded viability at 28.5 h, 10 µM is given for each entry.

{"columns": ["compound", "units.symbol", "viability at 28.5 h, 10 µM"],
 "data": [
  ["CCCC(=O)c1ccc(S(=O)(=O)N2CCCN(Cc3cc(Br)cs3)CC2)cc1", "%", 91.2],
  ["O=C(O)[C@@H]1CCCN1C(=O)C1CCC(Cn2nnc3ccccc3c2=O)CC1 (stereo partly drawn)", "%", 88.6],
  ["Cc1cc(Br)ccc1C(=O)NCCc1c[nH]c2ccc(Cl)cc12", "%", 91]
]}

###

Here the recorded viability at 28.5 h, 10 µM is given for each entry.
method.description: in vitro
study.conditions: human, hela cells, % viability

{"columns": ["smiles.str", "viability at 28.5 h, 10 µM / %"],
 "data": [
  ["COc1ccc(-c2noc([C@@H]3C[C@@H](O)CN3Cc3cccc(C#N)c3)n2)cc1", 92.4],
  ["N#CCC(=O)N1CCN(Cc2ccc3c(c2)OCO3)CC1", 88.7],
  ["CN(Cc1ccccc1)c1nc(C(F)(F)F)cc(=O)[nH]1", 92],
  ["CCOC(=O)c1sc(NC(=O)C2CCCCC2)nc1C", 92.3],
  ["CCc1ccccc1NC(=O)Cn1ncnc1Sc1nc2c(c(=O)n(C)c(=O)n2C)n1C", 87.6]
]}

###

Here the recorded viability at 28.5 h, 10 µM is given for each entry.
method.description: in vitro
study.conditions: human, hela cells, % viability

{"columns": ["molecule", "viability at 28.5 h, 10 µM"],
 "data": [
  ["CCN1C(=O)C2(CC(=O)N(CCc3scnc3C)C2=O)c2cc(C)ccc21 (centres unmarked)", "96.8%"],
  ["Cc1cccn2c(CN3CCC(O)CC3)c(C(=O)N3CCOCC3)nc12", "104%"],
  ["CC1Cc2cc(C(O)CN3CCCC3)ccc2N1C(=O)C1CC1 (centres unmarked)", "94.9%"],
  ["COc1ccc(/C=N/NC(=O)c2cc[nH]n2)cc1COc1ccc(Cl)cc1Cl", "90.9%"],
  ["C=C(C)Cn1c(SC(C)C)nnc1-c1cccnc1", "85.7%"],
  ["CCOc1c(Br)cc(CNc2nc[nH]n2)cc1OC", "104%"],
  ["CN(Cc1ccccc1)C(=O)c1cc(=O)[nH]c2ccccc12", "92.8%"],
  ["O=C(Nc1ccccc1)Nc1ccc(=O)n2c1[C@@H]1C[C@@H](CN(C(=O)c3ccc(F)cc3)C1)C2", "104%"],
  ["N#CCCN(C(=O)NCc1cccc(C(F)(F)F)c1)C1CCCCC1", "96.8%"],
  ["CN(Cc1cnn(C)c1)C(=O)c1ccc(Br)cc1O", "104%"],
  ["COc1ccc(C(C)c2cc3c(cc2OC)OCO3)c(F)c1 (centres unmarked)", "53.3%"]
]}

###

method.description: in vitro
study.conditions: human, hela cells, % viability
Here the recorded viability at 28.5 h, 10 µM is given for each entry.
quantity: viability at 28.5 h, 10 µM

{"columns": ["compound", "recorded.value"],
 "data": [
  ["CC(=O)Cc1nc2ccccc2nc1O", "92.2%"],
  ["CCNC(=O)C1CCN(C(=O)c2coc(COc3cccc(F)c3)n2)C1 (centres unmarked)", "86.3%"],
  ["CN(Cc1nc(-c2ccccc2)no1)C(=O)C1CCOC1 (centres unmarked)", "107%"],
  ["O=c1c(Cl)nc(Cl)c(C2CCCCC2)n1Cc1ccccc1", "87.6%"],
  ["COc1ccc(CC(=O)N2CCN(C(C)c3nc4ccccc4s3)CC2)cc1F (centres unmarked)", "95.9%"],
  ["COc1ccccc1-c1nnc(NC(=O)COc2ccccc2)o1", "106%"],
  ["O=c1c2c3c(sc2ncn1Cc1nn[nH]n1)CCCC3", "83.9%"],
  ["Cc1nn(Cc2nnc(-c3cccs3)o2)c(C)c1Br", "87.7%"],
  ["CC(C)OC(=O)Cn1c(C2CCCNC2)cc2cccnc21 (centres unmarked)", "100%"],
  ["COc1ccc(C2(C)NC(=O)N(CC(=O)Nc3ccc(NC(C)=O)cc3)C2=O)cc1 (centres unmarked)", "106%"],
  ["CC(C)NC(=O)N[C@H]1CCN2C(=O)N(c3ccc(F)c(Cl)c3)C(=O)[C@@H]2C1", "83.1%"],
  ["C[C@H]1CN2CCCC2CN1Cc1ccc(CN(C)C)cc1 (some centres unmarked)", "88.9%"],
  ["O=C(Cn1cccc(C(=O)NC2CCCCC2)c1=O)Nc1nc2c(s1)CCCCC2", "90.1%"],
  ["COc1cccc(OCC(=O)Nc2ccccc2C(=O)O)c1", "85.9%"],
  ["COc1ccnc(N2CCN(C(=O)c3cccc4c3NCCC4)CC2)n1", "109%"],
  ["O=C(c1ccncc1)C12CN3CN(CN(C3)C1)C2", "97.6%"],
  ["CNS(=O)(=O)c1ccc(CCC(=O)N(C)Cc2cnn(C)c2)cc1", "84.9%"],
  ["O=C(Nc1sc2c(c1C(=O)N1CCOCC1)CCCC2)c1cccs1", "92.9%"],
  ["CCn1ccc(C(=O)NC(c2cncc(OC)c2)[C@H]2C[C@@H](O)C2)cc1=O (some centres unmarked)", "110%"],
  ["C(CSC1=NCCN1)CSC1=NCCN1 [CBK278217B]", "106%"],
  ["CCN(CC)C(=O)c1ccccc1NS(=O)(=O)Cc1ccccc1[N+](=O)[O-]", "99.9%"],
  ["Nc1nonc1NC(=O)N/N=C/c1ccc(C(F)(F)F)cc1", "99.8%"],
  ["CCc1[nH]nc2c1C1(CN3CCC1CC3)C(C#N)=C(N)O2 (centres unmarked)", "101%"]
]}
